Procedure Text: chemical genetic growth profiling, strain panel (AID 1159580);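 further: tested at 20 µM; growth read once vehicle control cultures reached saturation at 30 °C; 1 = growth at the plate median or of vehicle wells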
Setup Conditions: S. cerevisiae deletion strains, growth OD, locus YER015W, strain faa2, active compounds read low
Among all 5,500 compounds or so, about 2,000 (36%) were called active. Not shown: some 18% with an inconclusive outcome. The list shows a part of the results.
I'd be grateful if you could share measured normalized growth for these entries.
One number for each entry.

{"Compound": "CC(=O)[C@@]1(O)CCC2C3CCC4=CC(=O)CC[C@]4(C)C3CC[C@@]21C (stereo partly specified)", "Result Number": 0.998}

# batch size: 2; output normalized growth per entry
1. CO[C@H]1C[C@H](O[C@H]2[C@H](C)[C@@H](OC3O[C@H](C)C[C@H](N(C)C)[C@H]3OC(C)=O)[C@@H](C)C[C@]3(CO3)C(=O)[C@H](C)[C@@H](OC(C)=O)[C@@H](C)[C@@H](C)OC(=O)[C@@H]2C)O[C@@H](C)[C@@H]1OC(C)=O (stereo partly specified)
2. O=c1oc2c(O)c(O)cc3c(=O)oc4c(O)c(O)cc1c4c23

## Output
1. 0.998
2. 0.583

###

Procedure Text: chemical genetic growth profiling, strain panel (AID 1159580)
Setup Conditions: S. cerevisiae deletion strains, growth OD, locus YGR135W, strain pre9
The whole screen tested about 5,500 compounds, of which about 2,000 (36%) were called active. Roughly 18% stayed inconclusive and do not appear here. No stated cut-off is given here; in the data, active means normalized growth mostly below about 0.91 (no sharp cut-off); inconclusive means no clear call, values can overlap the other calls; inactive means mostly above about 0.92. This is one part of the list.
Please answer using one outcome listed in t (active), f (inactive)

{"Molecule": "COc1ccc2c(c1)[C@]13CCCC[C@H]1[C@H](C2)N(C)CC3", "Assigned Label": "f"}
{"Molecule": "CC(=O)O[C@H]1CC[C@]2(C)C3CC(=O)[C@]4(C)C(C(C)=O)=CCC4C3CC[C@H]2C1 (some centres not stated)", "Assigned Label": "f"}
{"Molecule": "CN1CCN(CCC=C2c3ccccc3Sc3ccc(S(=O)(=O)N(C)C)cc32)CC1", "Assigned Label": "f"}
{"Molecule": "NC1C[C@H]1c1ccccc1 (some centres not stated)", "Assigned Label": "f"}
{"Molecule": "CC(=O)Oc1cccc2c1C(=O)c1c(OC(C)=O)cc(C(=O)O)cc1C2=O", "Assigned Label": "t"}
{"Molecule": "COc1cc2cc3c4cc(OC)c(OC)cc4cc[n+]3c(C)c2cc1OC", "Assigned Label": "f"}

## Input Query: recorded result category for COc1ccc2c(c1OC)OC[C@@H](c1ccc(OC)c(OC)c1OC)C2 in this test
## Output f

## Input Query: recorded result category for COc1cc2c(cc1O)CCNC2C (configuration not stated) in this test
## Output f

###

I'd be grateful if you could share measured normalized growth for these entries.
Procedure Text: chemical genetic growth profiling, strain panel (AID 1159580)
Setup Conditions: S. cerevisiae deletion strains, growth OD, locus YMR263W, strain SAP30, active compounds read low
In all, about 5,500 compounds went through this assay and about 2,000 (36%) were called active. Roughly 18% stayed inconclusive and do not appear here. The list shows a part of the results.

{"Molecule": "O=c1oc2c(O)c(O)cc3c(=O)oc4c(O)c(O)cc1c4c23", "Reported Metric": "normalized growth", "Result": "0.616 (active)"}
{"Molecule": "O=C(O)[C@H](O)[C@@](O)(Cc1ccc(O)cc1)C(=O)O", "Reported Metric": "normalized growth", "Result": "1.02 (inactive)"}
{"Molecule": "NC(C(=O)O)c1cc(=O)[nH]o1 (stereo unspecified)", "Reported Metric": "normalized growth", "Result": "1 (inactive)"}
{"Molecule": "N#Cc1sccc1Br", "Reported Metric": "normalized growth", "Result": "1.04 (inactive)"}
{"Molecule": "CN(C(=O)Nc1ccccc1)n1cnc2ccccc2c1=O", "Reported Metric": "normalized growth", "Result": "0.994 (inactive)"}

# batch size: 5; output normalized growth per entry
1. CSc1nc(N)nc(N2CCCCC2)n1
2. NCC1OC(OC2C(CO)OC(OC3C(O)C(N)CC(N)C3OC3OC(CO)C(O)CC3N)C2O)C(N)C(O)C1OC1OC(CO)C(O)C(O)C1O (stereo unspecified)
3. O=C(O)CC1CCCc2ccccc2C1O (stereo unspecified)
4. CC(C)(C)c1ccc(-c2cc(N)c(C(N)=O)s2)cc1
5. NC[C@H]1O[C@H](O[C@H]2C(O[C@@H]3O[C@H](CO)[C@@H](O)[C@H]3O)[C@@H](O)[C@H](N)C[C@@H]2N)[C@H](N)[C@@H](O)[C@@H]1O (stereo partly specified)

## Output
1. 1.02 (inactive)
2. 0.985 (inactive)
3. 0.997 (inactive)
4. 0.967 (inactive)
5. 0.995 (inactive)

## Input Using the record for CN(C)CCc1c[nH]c2ccc(CS(=O)(=O)N3CCCC3)cc12 , state its measured normalized growth.
## Output 1.01 (inactive)

###

Procedure Text: chemical genetic growth profiling, strain panel (AID 1159580);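 further: tested at 20 µM; growth read once vehicle control cultures reached saturation at 30 °C; 1 = growth at the plate median or of vehicle wells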
Setup Conditions: S. cerevisiae deletion strains, growth OD, locus YLR258W, strain gsy2, active compounds read low
The campaign covered roughly 5,500 compounds. About 2,000 (36%) were called active. Another 18% or so got no clear call; they are omitted. The list shows a part of the results.
Reported Metric: normalized growth
Give bare numbers.

Illustrative cases are given below, each with its answer.
{"Compound": "COc1cc2c(cc1OC)[C@@]13CCN4CC5=CCOC6CC(=O)N2C1[C@H]6[C@H]5C[C@H]43 (stereo not given in full)", "normalized growth": 0.99}
{"Compound": "COc1cnc(NS(=O)(=O)c2ccc(N)cc2)nc1", "normalized growth": 0.99}
{"Compound": "CO[C@@]1(NC(=O)Cc2cccs2)C(=O)N2C(C(=O)O)=C(COC(N)=O)CS[C@@H]21", "normalized growth": 0.976}

# batch size: 2; output normalized growth per entry
1. COC1(C)CCC2OC2(C)CCC2C1CC2(C)C (stereo not given)
2. COC(=O)[C@]1(C)CC[C@]2(C)CC[C@]3(C)C4=CC=C5C(=CC(=O)C(O)=C5C)[C@]4(C)CC[C@@]3(C)[C@@H]2C1

## Output
1.01
0.802

###

I'd be grateful if you could share measured normalized growth for these entries.
Procedure Text: chemical genetic growth profiling, strain panel (AID 1159580);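 further: tested at 20 µM; growth read once vehicle control cultures reached saturation at 30 °C; 1 = growth at the plate median or of vehicle wells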
Setup Conditions: S. cerevisiae deletion strains, growth OD, locus YHR200W, strain rpn10, active compounds read low
Screen size: about 5,500 compounds; about 2,000 (36%) were called active. Inconclusive results (about 18%) are left out. Some of the results follow.

Illustrative cases are given below, each with its answer.
{"Compound": "OCCN1CCN(CCCN2c3ccccc3Sc3ccc(C(F)(F)F)cc32)CC1", "normalized growth": "0.968 (inactive)"}
{"Compound": "COc1cc2c(cc1OC)[C@@H]1C(=O)c3ccc4c(c3O[C@@H]1CO2)CC(C(C)C)O4 (stereo partly drawn)", "normalized growth": "1.02 (inactive)"}
{"Compound": "Cc1ccc(N(CC2=NCCN2)c2cccc(O)c2)cc1", "normalized growth": "1 (inactive)"}
{"Compound": "COc1c2c(cc3c1OCO3)C13C=C[C@H](OC)CC1N(C2)CC3O (stereo partly drawn)", "normalized growth": "0.992 (inactive)"}
{"Compound": "NC1C[C@H]1c1ccccc1 (stereo partly drawn)", "normalized growth": "0.976 (inactive)"}

# batch size: 2; output normalized growth per entry
1. NC1CC1c1ccccc1 (stereo not drawn)
2. CCNc1nc(Cl)nc(NCC)n1

## Output
0.991 (inactive)
1.01 (inactive)

# batch size: 3; output normalized growth per entry
1. COc1ccc(C2C(=O)c3ccccc3C2=O)cc1
2. CCOC([O-])=Nc1c[n+](N2CCOCC2)no1
3. COc1cc(/C=C/C=O)cc(OC)c1OC

## Output
1. 0.995 (inactive)
2. 0.995 (inactive)
3. 1.01 (inactive)

# batch size: 2; output normalized growth per entry
1. O=c1[nH]cnc2c1ncn2C1O[C@H](CO)[C@@H](O)[C@H]1O (stereo partly drawn)
2. CC1=NN(c2ccccc2)C(=O)C1

## Output
1: 1.03 (inactive); 2: 0.975 (inactive)

## Input Using the record for C=C(C)[C@H]1Cc2c(ccc3c2O[C@@H]2COc4cc(OC)c(OC)cc4[C@@H]2C3=O)O1 , state its measured normalized growth.
## Output 0.996 (inactive)

###

Procedure Text: chemical genetic growth profiling, strain panel (AID 1159580);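 further: tested at 20 µM; growth read once vehicle control cultures reached saturation at 30 °C; 1 = growth at the plate median or of vehicle wells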
Setup Conditions: S. cerevisiae deletion strains, growth OD, locus YOL147C, strain pex11, active compounds read low
Hit rate of the full screen: of about 5,500 compounds, about 2,000 (36%) were called active. Roughly 18% stayed inconclusive and do not appear here. This is one part of the list.
Simple rule here: normalized growth less than 1 is class 1, otherwise class 0.

{"Molecule": "CC(=O)Oc1cccc2c1C(=O)c1c(OC(C)=O)cc(C(=O)O)cc1C2=O", "Assigned Label": "class 1"}

## Input Decide: normalized growth of CC1=CC(=O)C2=C(C)CC(O)C3C(C)C(=O)OC3C12 (configuration not stated) strictly below 1?
## Output class 0

## Input Decide: normalized growth of O=C(OC[C@H]1O[C@H](OC(=O)c2cc(O)c(O)c(OC(=O)c3cc(O)c(O)c(O)c3)c2)[C@H](OC(=O)c2cc(O)c(O)c(OC(=O)c3cc(O)c(O)c(O)c3)c2)[C@@H](OC(=O)c2cc(O)c(O)c(OC(=O)c3cc(O)c(O)c(O)c3)c2)[C@@H]1OC(=O)c1cc(O)c(O)c(OC(=O)c2cc(O)c(O)c(O)c2)c1)c1cc(O)c(O)c(OC(=O)c2cc(O)c(O)c(O)c2)c1 strictly below 1?
## Output class 1
